Biological target: Nav1.1 (Homo sapiens (Human))
Assay: Sodium Influx Assay (Flux), Nav1.1
Details: Trex HEK293 cells, ANG2 dye, inactivated state
Where a name gives a salt, the structure may show the parent alone.
Quantity Kind: IC50 (µM)

Cc1nc(S(=O)(=O)Nc2cscn2)c(F)cc1NCc1cccc(C(F)(F)F)c1CN1C2CCC1CC2 [Example 37, trifluoroacetic acid salt] : 8.7
Cc1nc(S(=O)(=O)Nc2cscn2)ccc1NCc1ccccc1CN1CCC1 [Example 26, trifluoroacetic acid salt] : 30
Cc1cc(S(=O)(=O)Nc2cccc(F)n2)ncc1NCc1c(F)cccc1CN1CCC1 : 30

====

Biological target: Nav1.6 (Homo sapiens (Human), UniProt Q9UQD0)
Assay: Sodium Influx Assay (Flux), Nav1.6
Format: cell-based
Details: Trex HEK293 cells, ANG2 dye, inactivated state
Structures can show the parent of a compound that is named as a salt.
Listing of recorded IC50 by entry.
Quantity Kind: IC50 (nM)

Cc1nc(S(=O)(=O)Nc2cscn2)c(F)cc1NCc1ccccc1CN(C)C(C)(C)C [Example 34, formic acid salt] : 37
Cc1nc(S(=O)(=O)Nc2cscn2)ccc1NCc1c(F)ccc(F)c1CN(C)C(C)(C)C [Example 21, trifluoroacetic acid salt] : 102
Cc1nc(S(=O)(=O)Nc2cscn2)ccc1NCc1c(F)cccc1CN1CCCC1 [Example 30, trifluoroacetic acid salt] : 111
Cc1cc(S(=O)(=O)Nc2ccsn2)ncc1NCc1c(F)cccc1CN1CCC1 [Example 12, trifluoroacetic acid salt] : 3430
Cc1nc(S(=O)(=O)Nc2cscn2)ccc1NCc1c(F)cccc1CN1CCC1 [Example 4] : 111
CN(Cc1cccc(F)c1CNc1cc(F)c(S(=O)(=O)Nc2cscn2)nc1C1CC1)C(C)(C)C [Example 49] : 78
Cc1nc(S(=O)(=O)Nc2cscn2)c(F)cc1NCc1c(F)ccc(F)c1Br [Example 36, trifluoroacetic acid salt] : 863
CN(Cc1cccc(F)c1CNc1ncc(S(=O)(=O)Nc2cscn2)cc1Cl)C(C)(C)C [Example 11, formic acid salt] : 8370
Cc1nc(S(=O)(=O)Nc2cscn2)ccc1N[C@@H](C)c1ccccc1F [Example 3] : 4740
O=S(=O)(Nc1cscn1)c1ccc(NCc2c(F)ccc(F)c2CN2CCCC2)n2ccnc12 [Example 44, trifluoroacetic acid salt] : 171
Cc1nc(NCc2c(F)cccc2CN(C)C(C)(C)C)ccc1S(=O)(=O)Nc1cscn1 [Example 10, formic acid salt] : 5310
O=S(=O)(Nc1cccc(F)n1)c1cnc(NCc2c(F)cccc2CN2CCCC2)c(Cl)c1 [Example 42, trifluoroacetic acid salt] : 4470
Cc1nc(S(=O)(=O)Nc2cscn2)ccc1NCc1ccccc1CN(C)C(C)(C)C [Example 28, trifluoroacetic acid salt] : 782
Cc1c(NCc2c(F)cccc2CN(C)C(C)C)cnc(S(=O)(=O)Nc2cccc(F)n2)c1F [Example 45] : 1920
Cc1nc(S(=O)(=O)Nc2cscn2)ccc1NCc1c(F)cccc1CN1CCC1(C)C [Example 8, trifluoroacetic acid salt] : 719
O=S(=O)(Nc1cscn1)c1cc(C(F)F)c(NCc2c(F)cccc2CN2CCCC2)cn1 [Example 17, formic acid salt] : 1460
O=S(=O)(Nc1cscn1)c1ccc(NCc2c(F)cccc2CN2CCC2)nc1 [Example 5] : 8470
Cc1nc(S(=O)(=O)Nc2cscn2)c(F)cc1NCc1c(F)cccc1CN(C)C(C)(C)C [Example 48] : 84
O=S(=O)(Nc1cscn1)c1ccc(NCc2c(F)cccc2CN2CCCC2)c(C(F)F)n1 [Example 18, formic acid salt] : 15
Cc1nc(S(=O)(=O)Nc2cscn2)ccc1NCc1c(F)cccc1CN1CC(C)(F)C1 [Example 14] : 382
Cc1nc(S(=O)(=O)Nc2ccsn2)ccc1NCc1c(F)cccc1CN(C)C(C)(C)C [Example 19, trifluoroacetic acid salt] : 221
O=S(=O)(Nc1cscn1)c1ccc(NCc2c(F)cccc2CN2C3CCC2CC3)c(C(F)(F)F)n1 [Example 47, trifluoroacetic acid salt] : 21
O=S(=O)(Nc1cscn1)c1cc(C(F)(F)F)c(NCc2c(F)cccc2CN2CCC2)cn1 [Example 31] : 1500
Cc1cc(S(=O)(=O)Nc2cccc(F)n2)ncc1NCc1c(F)cccc1CN1CCC1 [Example 9] : 917
Cc1cc(S(=O)(=O)Nc2cscn2)ncc1NCc1c(F)cccc1CN1CCC1 [Example 7, formic acid salt] : 5820
